Please respond with reported IC50 for every item in the list.
Test system: ESR1 transcription in MVLN cells
assay.explanation: MVLN reporter assay: repression of ESR1 transcription (luciferase signal)
Assay type: cell-based
measurement.setup: Homo sapiens, MVLN, 24 h, luciferase signal after 24 h, read-out: MVLN reporter assay, IC50 [M] (arithmetic mean)
Value expressed in M; do not type the unit.

Input line: Record request: IC50 value, item CC(C)c1cccnc1S(=O)(=O)NC(=O)c1cc2c(F)cc(N3CCC3)cc2o1 [Example 79]
Output line: 2.1e-08

Input line: Record request: IC50 value, item COc1cccc2c(S(=O)(=O)NC(=O)c3cc4c(F)cc(N5CCC5)cc4o3)cccc12 [Example 65]
Output line: 8.32e-06

Input line: Record request: IC50 value, item CC(C)Oc1ccc(C(C)(C)C)cc1S(=O)(=O)NC(=O)c1cc2c(F)cc(N3CCC3)cc2o1 [Example 229]
Output line: 3.83e-08

Input line: Record request: IC50 value, item CCOc1ccc(C(C)(C)C)cc1S(=O)(=O)NC(=O)c1cc2c(F)cc(N3CC(F)C3)cc2o1 [Example 113]
Output line: 1.08e-08

Input line: Record request: IC50 value, item COCCOc1ccc(Cl)c(S(=O)(=O)NC(=O)c2cc3c(F)cc(N4CCC4)cc3o2)c1 [Example 59]
Output line: 4.29e-06

Input line: Record request: IC50 value, item CC(C)(C)c1ccc(OC2CCC2)c(S(=O)(=O)NC(=O)c2cc3c(F)cc(N4CCC4)cc3o2)c1 [Example 228]
Output line: 2.39e-08
